- TEST TARGET: HLA-B*0801

- BINDER: "VAGWLLGNP (modifications not checked) [… (SEQ ID NO: 37)]"
  ELISA (Absorption-Pass/Fail Control) (absorption): 0.04
- BINDER: "DILEKKHNG (modifications not checked) [… (SEQ ID NO: 34)]"
  ELISA (Absorption-Pass/Fail Control) (absorption): 0.53
- BINDER: "TIMEKNVTV (modifications not checked) [… (SEQ ID NO: 18)]"
  ELISA (Absorption-Pass/Fail Control) (absorption): 0.8
- BINDER: "ILEKKHNGK (modifications not checked) [… (SEQ ID NO: 28)]"
  ELISA (Absorption-Pass/Fail Control) (absorption): 0.95
